- target_or_test_system: T1, human IL-13 R130Q variant (R110Q of the mature chain) (human, UniProt P35225 35-146, Biotinylated on amines (NHS-LC-biotin, 4:1) in ELISA, panning and competition assays. The letters are unchanged.)
- T1 construct: R130Q counts from Met 1 of the signal peptide, R110Q on the mature chain; Bought from Peprotech; also called IL-13 R110Q; b-R130Q
- T1 sequence (P35225 35-146 limits assumed, stated change not applied): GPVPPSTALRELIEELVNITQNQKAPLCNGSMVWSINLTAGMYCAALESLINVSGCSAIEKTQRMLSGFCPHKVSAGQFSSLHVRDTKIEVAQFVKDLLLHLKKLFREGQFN
- run_description: single-point (10 nM) phage Fab ELISA on biotinylated IL-13 R130Q
measured_metric: % of Lc16Hc7

{"binder": "Phage # 44 Fab (IL-13-142 library) (Fab, V domains shown, Fab on phage pIX) VH: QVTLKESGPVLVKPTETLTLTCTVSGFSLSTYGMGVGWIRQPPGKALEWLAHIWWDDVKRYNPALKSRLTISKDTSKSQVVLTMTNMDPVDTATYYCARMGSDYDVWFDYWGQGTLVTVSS VL: DIQMTQSPSTLSASVGDRVTITCRASKSISKYLAWYQQKPGKAPKLLIYSGSTLQSGVPSRFSGSGSGTEFTLTISSLQPDDFATYYCQQHDIGPYTFGGGTKVEIK", "measured": "240%"}
{"binder": "Phage # 22 Fab (IL-13-142 library) (Fab, V domains shown, Fab on phage pIX) VH: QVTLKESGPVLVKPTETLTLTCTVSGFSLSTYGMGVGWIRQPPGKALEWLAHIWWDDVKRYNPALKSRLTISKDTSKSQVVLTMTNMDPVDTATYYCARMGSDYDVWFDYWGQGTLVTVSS VL: DIQMTQSPSTLSASVGDRVTITCRASKSISKYLAWYQQKPGKAPKLLIYSGSTLQSGVPSRFSGSGSGTEFTLTISSLQPDDFATYYCQQHDPGPYTFGGGTKVEIK", "measured": "313%"}
{"binder": "Phage # 21 Fab (IL-13-142 library) (Fab, V domains shown, Fab on phage pIX) VH: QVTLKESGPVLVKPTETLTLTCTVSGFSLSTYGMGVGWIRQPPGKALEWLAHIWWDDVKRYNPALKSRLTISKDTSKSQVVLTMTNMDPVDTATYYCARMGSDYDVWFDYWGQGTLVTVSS VL: DIQMTQSPSTLSASVGDRVTITCRASKSISKYLAWYQQKPGKAPKLLIYSGSTLQSGVPSRFSGSGSGTEFTLTISSLQPDDFATYYCQQWSDGPYTFGGGTKVEIK", "measured": "276%"}
{"binder": "Phage # 84 Fab (IL-13-142 library) (Fab, V domains shown, Fab on phage pIX) VH: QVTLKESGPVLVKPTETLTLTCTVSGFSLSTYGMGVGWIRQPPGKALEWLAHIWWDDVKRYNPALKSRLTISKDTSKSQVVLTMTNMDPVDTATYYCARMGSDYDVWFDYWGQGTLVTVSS VL: DIQMTQSPSTLSASVGDRVTITCRASKSISKYLAWYQQKPGKAPKLLIYSGSTLQSGVPSRFSGSGSGTEFTLTISSLQPDDFATYYCQQHLIEPYTFGGGTKVEIK", "measured": "186%"}
{"binder": "Phage # 47 Fab (IL-13-142 library) (Fab, V domains shown, Fab on phage pIX) VH: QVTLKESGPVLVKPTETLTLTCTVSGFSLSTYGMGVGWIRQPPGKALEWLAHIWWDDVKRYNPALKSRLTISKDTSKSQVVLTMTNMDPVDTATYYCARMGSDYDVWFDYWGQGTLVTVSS VL: DIQMTQSPSTLSASVGDRVTITCRASKSISKYLAWYQQKPGKAPKLLIYSGSTLQSGVPSRFSGSGSGTEFTLTISSLQPDDFATYYCQQLTYEPYTFGGGTKVEIK", "measured": "233%"}
{"binder": "Phage # 04 Fab (IL-13-142 library) (Fab, V domains shown, Fab on phage pIX) VH: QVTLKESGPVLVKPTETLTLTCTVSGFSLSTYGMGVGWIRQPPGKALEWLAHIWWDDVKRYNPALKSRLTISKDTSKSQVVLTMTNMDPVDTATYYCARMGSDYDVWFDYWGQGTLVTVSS VL: DIQMTQSPSTLSASVGDRVTITCRASKSISKYLAWYQQKPGKAPKLLIYSGSTLQSGVPSRFSGSGSGTEFTLTISSLQPDDFATYYCQQQDLGPYTFGGGTKVEIK", "measured": "127%"}
{"binder": "Phage # 39 Fab (IL-13-142 library) (Fab, V domains shown, Fab on phage pIX) VH: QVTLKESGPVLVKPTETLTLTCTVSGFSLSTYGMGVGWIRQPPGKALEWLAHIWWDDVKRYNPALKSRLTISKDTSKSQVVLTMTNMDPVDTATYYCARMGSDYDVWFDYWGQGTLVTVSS VL: DIQMTQSPSTLSASVGDRVTITCRASKSISKYLAWYQQKPGKAPKLLIYSGSTLQSGVPSRFSGSGSGTEFTLTISSLQPDDFATYYCQQHLGVPYTFGGGTKVEIK", "measured": "178%"}
{"binder": "Phage # 09 Fab (IL-13-142 library) (Fab, V domains shown, Fab on phage pIX) VH: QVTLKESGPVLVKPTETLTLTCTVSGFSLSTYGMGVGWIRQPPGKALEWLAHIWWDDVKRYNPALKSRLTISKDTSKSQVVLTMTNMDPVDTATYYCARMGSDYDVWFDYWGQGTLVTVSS VL: DIQMTQSPSTLSASVGDRVTITCRASKSISKYLAWYQQKPGKAPKLLIYSGSTLQSGVPSRFSGSGSGTEFTLTISSLQPDDFATYYCQQHLDVPYTFGGGTKVEIK", "measured": "171%"}
{"binder": "Phage # 18 Fab (IL-13-142 library) (Fab, V domains shown, Fab on phage pIX) VH: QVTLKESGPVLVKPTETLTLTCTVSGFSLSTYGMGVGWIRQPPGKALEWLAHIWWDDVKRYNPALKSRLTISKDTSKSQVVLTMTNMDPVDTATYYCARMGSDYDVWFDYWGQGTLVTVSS VL: DIQMTQSPSTLSASVGDRVTITCRASKSISKYLAWYQQKPGKAPKLLIYSGSTLQSGVPSRFSGSGSGTEFTLTISSLQPDDFATYYCQQWDGGPYTFGGGTKVEIK", "measured": "231%"}
{"binder": "Phage # 82 Fab (IL-13-142 library) (Fab, V domains shown, Fab on phage pIX) VH: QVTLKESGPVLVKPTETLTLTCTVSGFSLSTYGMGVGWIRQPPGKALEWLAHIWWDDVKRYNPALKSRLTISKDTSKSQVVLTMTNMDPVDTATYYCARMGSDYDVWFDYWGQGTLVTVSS VL: DIQMTQSPSTLSASVGDRVTITCRASKSISKYLAWYQQKPGKAPKLLIYSGSTLQSGVPSRFSGSGSGTEFTLTISSLQPDDFATYYCQQHDVSPYTFGGGTKVEIK", "measured": "342%"}
